- experimentalTarget: DPP4 (Homo sapiens, UniProt P27487)
- Sequence (P27487 whole entry): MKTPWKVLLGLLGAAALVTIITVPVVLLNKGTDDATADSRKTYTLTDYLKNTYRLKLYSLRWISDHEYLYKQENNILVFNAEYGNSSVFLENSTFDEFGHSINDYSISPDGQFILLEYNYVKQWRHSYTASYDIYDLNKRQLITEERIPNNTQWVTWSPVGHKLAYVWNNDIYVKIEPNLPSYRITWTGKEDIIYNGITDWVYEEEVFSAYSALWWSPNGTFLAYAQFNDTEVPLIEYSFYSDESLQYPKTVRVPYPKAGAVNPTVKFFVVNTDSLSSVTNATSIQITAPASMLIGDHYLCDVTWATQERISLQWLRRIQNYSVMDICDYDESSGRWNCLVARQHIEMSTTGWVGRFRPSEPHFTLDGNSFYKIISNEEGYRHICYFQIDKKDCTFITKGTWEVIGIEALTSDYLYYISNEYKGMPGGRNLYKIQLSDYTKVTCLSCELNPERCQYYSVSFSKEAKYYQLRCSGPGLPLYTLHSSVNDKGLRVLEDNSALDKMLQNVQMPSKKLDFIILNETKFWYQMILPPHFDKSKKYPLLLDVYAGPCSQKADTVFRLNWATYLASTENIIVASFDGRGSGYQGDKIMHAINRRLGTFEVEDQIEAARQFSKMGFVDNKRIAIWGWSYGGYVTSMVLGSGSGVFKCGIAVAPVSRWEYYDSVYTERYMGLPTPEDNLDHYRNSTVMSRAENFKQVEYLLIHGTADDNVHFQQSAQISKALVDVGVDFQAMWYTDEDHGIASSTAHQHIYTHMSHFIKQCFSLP
- methodDescription: DPP4 activity assay (DPP4 inhibitor screening assay kit, Cayman);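 further: fluorescence read at excitation 360 nm and emission 460 nm after the enzyme reaction ran 30 min at 37 °C in a 96-well plate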
- Format: biochemical
- Set-up: purchased Cayman Chemical, Ann Arbor, MI, USA
- testSettings: 0.5 h, 10 µM; control mean 100.0; mean of Exp 1-3; read-out: DPP4 activity in library screen, Mean
remaining activity at 10 µM values for the molecules below.
measurementLabel: remaining activity at 10 µM

molecule	testResult
O=C1Nc2ccccc2/C1=C1/Nc2ccccc2C1=O	58.2%
O=C(CCc1ccc(O)cc1)c1c(O)cc(O)cc1O	74.9%
C[C@@H]1O[C@@H](OC[C@H]2O[C@@H](Oc3c(-c4ccc(O)c(O)c4)oc4cc(O)cc(O)c4c3=O)[C@H](O)[C@@H](O)[C@@H]2O)[C@H](O)[C@H](O)[C@H]1O	67.5%
OCc1ccc(O[C@@H]2O[C@H](CO)[C@@H](O)[C@H](O)[C@H]2O)cc1	93.7%
C[C@H](NCc1ccc(OCc2cccc(F)c2)cc1)C(N)=O [Safinamide]	103%
